Data provenance is patent US20080138291A1.

target: hCA I (Homo sapiens); experiment: CA inhibition, CO2 hydration method, isozyme I; assay type: biochemical; settings: Table 2, human cloned isozyme, read-out: KI hCA I
pKi: −log10 of the molar value.
METRIC: pKi

INSERT INTO measurements (molecule, metric, recorded_value) VALUES
  ('NS(=O)(=O)c1nnc(NS(=O)(=O)c2ccc(NC(=O)Nc3ccc(-c4c5ccc(=O)cc-5oc5cc(O)ccc45)c(C(=O)O)c3)cc2)s1 [compound 11]', 'pKi', 6.39),
  ('NS(=O)(=O)c1ccc(NC(=O)Nc2ccc(-c3c4ccc(=O)cc-4oc4cc(O)ccc34)c(C(=O)O)c2)c(F)c1 [compound 6]', 'pKi', 5.92),
  ('NS(=O)(=O)c1ccc(CNS(=O)(=O)c2ccc(NC(=O)Nc3ccc(-c4c5ccc(=O)cc-5oc5cc(O)ccc45)c(C(=O)O)c3)cc2)cc1 [compound 10]', 'pKi', 6.28),
  ('NS(=O)(=O)c1cccc(NC(=O)Nc2ccc(-c3c4ccc(=O)cc-4oc4cc(O)ccc34)c(C(=O)O)c2)c1 [compound 2, (3-Sulfamoylphenyl)ureido fluorescein]', 'pKi', 5.74),
  ('NS(=O)(=O)c1ccc(CCNC(=O)Nc2ccc(-c3c4ccc(=O)cc-4oc4cc(O)ccc34)c(C(=O)O)c2)cc1 [compound 5]', 'pKi', 5.87),
  ('NS(=O)(=O)c1ccc(NC(=O)Nc2ccc(-c3c4ccc(=O)cc-4oc4cc(O)ccc34)c(C(=O)O)c2)c(I)c1 [compound 9]', 'pKi', 5.87),
  ('NS(=O)(=O)c1ccc(NC(=O)Nc2ccc(-c3c4ccc(=O)cc-4oc4cc(O)ccc34)c(C(=O)O)c2)cc1 [compound 1, (4-Sulfamoylphenyl)ureido fluorescein]', 'pKi', 5.77),
  ('NS(=O)(=O)c1ccccc1NC(=O)Nc1ccc(-c2c3ccc(=O)cc-3oc3cc(O)ccc23)c(C(=O)O)c1 [compound 3, (2-Sulfamoylphenyl)ureido fluorescein]', 'pKi', 5.72),
  ('NS(=O)(=O)c1ccc(NC(=O)Nc2ccc(-c3c4ccc(=O)cc-4oc4cc(O)ccc34)c(C(=O)O)c2)c(Cl)c1 [compound 7]', 'pKi', 5.88),
  ('NS(=O)(=O)c1ccc(CNC(=O)Nc2ccc(-c3c4ccc(=O)cc-4oc4cc(O)ccc34)c(C(=O)O)c2)cc1 [compound 4]', 'pKi', 5.81);

###

target: hCA II (Homo sapiens, UniProt P00918); test: CA inhibition, CO2 hydration method, isozyme II; format: biochemical; conditions: Table 2; human cloned isozyme, CO2 hydration method
The compounds listed here are annotated with their Ki.
METRIC: Ki (nM)

INSERT INTO measurements (compound, metric, recorded_value) VALUES
  ('NS(=O)(=O)c1ccc(NC(=O)Nc2ccc(-c3c4ccc(=O)cc-4oc4cc(O)ccc34)c(C(=O)O)c2)c(Cl)c1 [compound 7]', 'Ki', 43),
  ('NS(=O)(=O)c1ccc(NC(=O)Nc2ccc(-c3c4ccc(=O)cc-4oc4cc(O)ccc34)c(C(=O)O)c2)c(I)c1 [compound 9]', 'Ki', 43),
  ('NS(=O)(=O)c1nnc(NS(=O)(=O)c2ccc(NC(=O)Nc3ccc(-c4c5ccc(=O)cc-5oc5cc(O)ccc45)c(C(=O)O)c3)cc2)s1 [compound 11]', 'Ki', 13);

###

The molecules listed here are annotated with their Ki.
target: hCA I (Homo sapiens, UniProt P00915); assay: CA inhibition, CO2 hydration method, isozyme I; type: biochemical; settings: Table 1, human cloned isozyme, read-out: KI hCA I
Sequence (P00915 whole entry): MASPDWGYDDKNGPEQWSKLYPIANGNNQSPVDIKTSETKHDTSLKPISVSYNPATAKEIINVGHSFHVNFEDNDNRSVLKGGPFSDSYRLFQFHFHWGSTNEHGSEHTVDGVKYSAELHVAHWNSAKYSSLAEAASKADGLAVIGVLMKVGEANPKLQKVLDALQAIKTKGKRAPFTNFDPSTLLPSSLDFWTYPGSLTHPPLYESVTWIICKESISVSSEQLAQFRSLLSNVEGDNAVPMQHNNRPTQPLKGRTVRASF
METRIC: Ki (µM)

INSERT INTO assay_data (smiles_code, recorded_value) VALUES
  ('NS(=O)(=O)c1cccc(NC(=S)Nc2ccc(-c3c4ccc(=O)cc-4oc4cc(O)ccc34)c(C(=O)O)c2)c1', 1.4),
  ('NS(=O)(=O)c1ccc(NC(=S)Nc2ccc(-c3c4ccc(=O)cc-4oc4cc(O)ccc34)c(C(=O)O)c2)c(F)c1', 0.98),
  ('NS(=O)(=O)c1ccc(NC(=S)Nc2ccc(-c3c4ccc(=O)cc-4oc4cc(O)ccc34)c(C(=O)O)c2)c(Cl)c1', 0.95),
  ('NS(=O)(=O)c1ccc(NNC(=S)Nc2ccc(-c3c4ccc(=O)cc-4oc4cc(O)ccc34)c(C(=O)O)c2)cc1', 1.2);
